assay: binders of probe aFGF2 on microarray, primary screen, stem cell growth factor project, biochemical, small-molecule microarray, fluorescence 635/667 (AID 1067); settings: higher = more signal;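 note: measures binding of biotinylated aFGF2 protein to printed compounds on slides; z-score merges feature fluorescence and signal-to-noise across triplicate slides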
measured-parameter: composite z-score
Output: the number by itself.

Query: Returns the measured composite z-score for the input compound. Input: COc1ccc(NC(=O)O[C@H]2[C@H](OC(=O)Nc3ccc4c(c3)OCO4)[C@@H](OC(=O)Nc3ccc4c(c3)OCO4)[C@@H](OC)O[C@@H]2CO)cc1
Result: 0.0397

Query: Returns the measured composite z-score for the input compound. Input: COc1ccc([Si](C)(C)[C@H]2[C@H](CCO)O[C@@]3(C(=O)N(Cc4cccc(N5CCCCC5=O)c4)c4ccccc43)[C@@H]2C)cc1
Result: -0.081

Query: Returns the measured composite z-score for the input compound. Input: CCC[C@@H]1C[C@@]1(CCC)[C@@H](NP(=O)(c1ccccc1)c1ccccc1)c1ccc(Cl)cc1
Result: 0.0368

Query: Returns the measured composite z-score for the input compound. Input: CC(C)(C)OC(=O)CC[C@]1(C(=O)NCCN2CCOCC2)N=C(c2ccc(OCCCO)cc2)O[C@H]1c1ccccc1N=[N+]=[N-]
Result: 0.105

Query: Returns the measured composite z-score for the input compound. Input: C=C(C(=O)CC[C@H](OC(=O)c1cccnc1)c1cccc(OCCO)c1)C(C)C
Result: -0.157

Query: Returns the measured composite z-score for the input compound. Input: Cc1ccc(S[C@]2(C(=O)NCC(F)(F)F)CC(=O)N(Cc3ccccc3)[C@@H]2c2ccc(CO)cc2)cc1
Result: -0.158

----------
experiment: inhibitors of hydroxyurea-induced Chk1 phosphorylation, primary screen, imaging, HeLa, phospho-Chk1 antibody, percent positive cells (AID 1186); settings: hydroxyurea-induced phospho-Chk1 immunofluorescence imaging, higher = more signal
Returns yes (1) if the recorded z-score is greater than or equal to -0.2, and no (0) otherwise.

Query: Does the reported z-score for C[N+](C)(C)CCCC[C@@H]1NC(=O)[C@@H]2C[C@H](C(=O)O)[C@H](c3ccc(O)cc3)N2C1=O fall at or above the -0.2 mark?
Result: yes (1)

Query: Does the reported z-score for C=CCOC(=O)[C@@H]1[C@H]2C(=O)O[C@H](c3ccccc3)[C@H](c3ccccc3)N2[C@H](c2ccc(OCCOC(=O)[C@H]3C[C@H]4C(=O)N[C@@H](CCCC[N+](C)(C)C)C(=O)N4[C@H]3c3ccc(O)cc3)cc2)[C@@]12C(=O)Nc1ccc(I)cc12 fall at or above the -0.2 mark?
Result: no (0)

Query: Does the reported z-score for COc1ccc([Si](C)(C)[C@H]2[C@H](CCn3cc(CCO)nn3)O[C@@]3(C(=O)N(Cc4ccc(N5C(=O)c6cccc7cccc5c67)cc4)c4ccccc43)[C@@H]2C)cc1 fall at or above the -0.2 mark?
Result: no (0)

Query: Does the reported z-score for Cc1ccc(S[C@]2(C(=O)NC(C)C)CC(=O)N(Cc3ccccc3C(F)(F)F)[C@@H]2c2ccc(CO)cc2I)cc1 fall at or above the -0.2 mark?
Result: yes (1)

Query: Does the reported z-score for COCCOC(=O)N1C(=O)[C@@]2(c3cc(C#CC4(O)CCCCCC4)ccc31)[C@H](C(=O)N1CCCCCCC1)[C@H]1C(=O)O[C@H](c3ccccc3)[C@H](c3ccccc3)N1[C@@H]2c1ccc(OCCO)cc1 fall at or above the -0.2 mark?
Result: yes (1)

Query: Does the reported z-score for COc1ccc([Si](C)(C)[C@H]2[C@H](CCn3cc([C@H](O)c4ccccc4)nn3)O[C@@]3(C(=O)N(Cc4ccc(N5CCC5=O)cc4)c4ccccc43)[C@@H]2C)cc1 fall at or above the -0.2 mark?
Result: yes (1)

Query: Does the reported z-score for CC(C)N1CC=CC23O[C@@H]4C=CCCOC(=O)C4[C@H]2C(=O)N(CCO)[C@@H]3C1=O (stereo partly drawn) fall at or above the -0.2 mark?
Result: no (0)
